Biological target: T1, HLA-A*02:01 (peptide-receptive MHC class I monomer from UV-ligand exchange) (human)
T1 construct: Monomers were captured on streptavidin-coated plates
Experiment: UV-exchange ELISA (anti-b2m); exchange yield grade: + >=10%, ++ >=20%, +++ >=50%, ++++ >=75%
Would you mind telling me the reported peptide exchange yield of each entry?

Worked examples follow.
# binder, peptide exchange yield
rows = [
    ("GLIRFPLMTI [peptide GLIRFPLMTI (SEQ ID NO 168)]", "50 to 75%"),
    ("KLFDIFSQQV [peptide KLFDIFSQQV (SEQ ID NO 136)]", "50 to 75%"),
    ("KLLEVDLDTV [peptide KLLEVDLDTV (SEQ ID NO 99)]", "50 to 75%"),
    ("VLDEDEPRFL [peptide VLDEDEPRFL (SEQ ID NO 60)]", "20 to 50%"),
    ("TLQEVVTGV [peptide TLQEVVTGV (SEQ ID NO 183)]", "50 to 75%"),
]

For each of the binders below, state peptide exchange yield.
1. LLLDTVTMQV [peptide LLLDTVTMQV (SEQ ID NO 172)]
2. ALLQGAIESV [peptide ALLQGAIESV (SEQ ID NO 177)]
3. KLYERCEVV [peptide KLYERCEVV (SEQ ID NO 47)]

Result:
1. 50 to 75%
2. 50 to 75%
3. 20 to 50%
